Reference source: patent US20220281973A1

Molecular target: T1, human LRIG1 extracellular domain fused to a linker-spaced 6-histidine tag, LRIG1-ECD-His (R&D systems, … (human, UniProt Q96JA1 35-794))
T1 construct: Bought protein; also called human LRIG1-His; hLRIG1-His; not shown: linker-spaced 6-histidine tag
T1 sequence: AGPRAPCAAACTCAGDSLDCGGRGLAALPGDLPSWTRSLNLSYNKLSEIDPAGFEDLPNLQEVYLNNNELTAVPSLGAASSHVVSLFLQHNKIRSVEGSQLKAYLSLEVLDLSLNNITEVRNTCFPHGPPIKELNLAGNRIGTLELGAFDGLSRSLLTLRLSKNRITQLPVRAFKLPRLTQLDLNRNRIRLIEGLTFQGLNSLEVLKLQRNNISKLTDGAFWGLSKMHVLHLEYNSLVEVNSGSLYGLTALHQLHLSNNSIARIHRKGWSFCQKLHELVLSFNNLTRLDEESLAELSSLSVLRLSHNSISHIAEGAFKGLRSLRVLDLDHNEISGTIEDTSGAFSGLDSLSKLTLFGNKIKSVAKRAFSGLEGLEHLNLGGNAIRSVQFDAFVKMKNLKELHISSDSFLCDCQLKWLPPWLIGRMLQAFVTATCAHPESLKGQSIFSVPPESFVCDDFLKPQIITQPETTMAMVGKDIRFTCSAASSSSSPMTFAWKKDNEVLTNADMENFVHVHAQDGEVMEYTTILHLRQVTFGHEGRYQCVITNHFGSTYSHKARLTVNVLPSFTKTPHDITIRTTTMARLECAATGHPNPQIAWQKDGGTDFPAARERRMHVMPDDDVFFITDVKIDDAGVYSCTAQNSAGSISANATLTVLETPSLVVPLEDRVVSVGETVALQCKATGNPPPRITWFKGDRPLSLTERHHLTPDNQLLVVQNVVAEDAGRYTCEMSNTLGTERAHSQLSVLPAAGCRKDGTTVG
Test: LRIG1 ECD ELISA-positive hybridoma antibodies tested in blocking ELISA on plate-bound LRIG1-ECD-His
measurement.name: binding result

INSERT INTO assay_data (binder, observed_result) VALUES
  ('802.3E6.2F9 (antibody, V domains shown, Mouse hybridoma monoclonal) VH: QVQLQQSGAELMKPGASVKISCKVTGHTFSSYWIEWVKQRPGHGLEWIGEILPGKGNTEYNEKFKGKATFTADTSSNTAYMQLSSLTSEDSAVYYCARNFDVWGAGTTVTVSS VL: DVVMTQTPLSLPVSLGDQASISCRSSQSLVHRNGHTYLHWYLQKPGQSPKLLIYKVSNRFSGVPDRFSGSVSGTDFTLKISRVEGEDVGVYFCSQSTHVPYTFGGGTKLEIK', 'binds'),
  ('802.4B6.2F6 (antibody, V domains shown, Mouse hybridoma monoclonal) VH: QVQLQQSGPELVKPGASVKLSCKASGYTFTSYDINWVKQRPGQGLEWIGWIYPRDGTTKYNEKFKGKATLTVDTSSSTAYMEIHSLTSEDSAVYFCAREDYGSSFHNWGQGTTLTVSS VL: NIVMTQSPKSMSMSVGERVTLSCKASEDVDTYVSWYQQKPNQSPKLLIYGASNRYTGVPDRFTGSGSATDFTLTISSVQAEDLADYYCGQSYSYPWTFGGGTKLEIK', 'binds');
